The reported measurements were obtained from paper PMC4912613.

# System: 3D7
# Assay Protocol: Cross-resistance EC50 assay, 3D7 parent / sensitive strain
# Format: cell-based
# Condition Details: Plasmodium falciparum, 3D7, 48 h, read-out: 3D7-C9-WT (PARENT) Average EC50
Observed Property: EC50 (µM)

{"Line Notation": "Cl.c1ccc2c(NCCCCCCNc3c4c(nc5ccccc35)CCCC4)c3c(nc2c1)CCCC3", "Reported Value": 0.094}

* * *

# System: ATQ-R4 (cytb M133I and L144S, parent 3D7)
# Assay Protocol: Cross-resistance EC50 assay, ATQ-R4
# Type: cell-based, Plasmodium falciparum
# Condition Details: Plasmodium falciparum, 3D7; SYBR green 72 hour assay; asynchronized parasites; 96-well or 1536-well format; ATQ-R4
# Description: To evaluate potential overlapping activity against known antimalarial drug targets, we performed dose-response studies with each compound against our assembled set of drug-resistant lines and their corresponding parents, in an asexual blood stage proliferation assay (Table 1). Comparisons were made to the drug-sensitive strain 3D7 when a parent was unavailable (TM90C2A, W2 and Dd2). […]
Each entry below carries its recorded EC50.
Observed Property: EC50 (µM)

{"Molecule": "CC(C)(C)OC(=O)N1CCN(c2ccccc2NC(=O)c2cccc(C(F)(F)F)c2Oc2ccc(F)cc2)CC1 [MMV030666]", "Test Target": "ATQ-R4 (cytb M133I and L144S, parent 3D7)", "Observed Property": "EC50", "Reported Value": 0.448}
{"Molecule": "CCN(CC)S(=O)(=O)c1ccc(-c2csc(Nc3ccc(C)c(C)c3)n2)cc1 [MMV009108]", "Test Target": "ATQ-R4 (cytb M133I and L144S, parent 3D7)", "Observed Property": "EC50", "Reported Value": 2.44}
{"Molecule": "COc1ccc(C(=O)C2CC2c2ccc(Cl)cc2)cc1 (stereo not shown) [MMV665924]", "Test Target": "ATQ-R4 (cytb M133I and L144S, parent 3D7)", "Observed Property": "EC50", "Reported Value": 3.41}
{"Molecule": "COCCNCC(O)Cn1c2ccc(Cl)cc2c2cc(Cl)ccc21 (stereo not shown) [MMV019017]", "Test Target": "ATQ-R4 (cytb M133I and L144S, parent 3D7)", "Observed Property": "EC50", "Reported Value": 1.24}
{"Molecule": "Cc1c(C)n(Cc2ccc(F)cc2)c2ccc(C(=O)NCc3ccco3)cc12 [MMV008149]", "Test Target": "ATQ-R4 (cytb M133I and L144S, parent 3D7)", "Observed Property": "EC50", "Reported Value": 3.88}
{"Molecule": "CC(C)c1cccc(C(NC(=O)C2Cc3ccccc3CN2C(=O)c2cccc(N3CCOCC3)c2)C2CCCC2)c1 (stereo not shown) [MMV028038]", "Test Target": "ATQ-R4 (cytb M133I and L144S, parent 3D7)", "Observed Property": "EC50", "Reported Value": 1.01}
{"Molecule": "CCCN(CCC)CC(O)COc1ccccc1C(=O)Nc1ccccc1 (stereo not shown) [MMV006455]", "Test Target": "ATQ-R4 (cytb M133I and L144S, parent 3D7)", "Observed Property": "EC50", "Reported Value": 0.674}
{"Molecule": "c1cc(-c2cnc3ccc(-c4ccc(N5CCOCC5)cc4)nn23)ccn1 [MMV668311]", "Test Target": "ATQ-R4 (cytb M133I and L144S, parent 3D7)", "Observed Property": "EC50", "Reported Value": 0.029}
{"Molecule": "O=C(Nc1ccsc1C(=O)NC1CCCCC1)c1ccc(F)cc1 [MMV665939]", "Test Target": "ATQ-R4 (cytb M133I and L144S, parent 3D7)", "Observed Property": "EC50", "Reported Value": 3.73}
{"Molecule": "Cc1ccc(Cn2c(N3CCC(C(=O)NCc4cccs4)CC3)nc3ccccc32)cc1 [MMV007564]", "Test Target": "ATQ-R4 (cytb M133I and L144S, parent 3D7)", "Observed Property": "EC50", "Reported Value": 1.05}
{"Molecule": "CNCc1ccc2nc(-c3coc(Cc4cc(Cl)ccc4OCC(C)C)n3)[nH]c2c1.Cl.Cl [MMV026596]", "Test Target": "ATQ-R4 (cytb M133I and L144S, parent 3D7)", "Observed Property": "EC50", "Reported Value": 0.303}
{"Molecule": "Cc1ccc(Oc2ncccc2C(=O)Cc2cccc3cccnc23)c(C)c1 [MMV020746]", "Test Target": "ATQ-R4 (cytb M133I and L144S, parent 3D7)", "Observed Property": "EC50", "Reported Value": 1.97}
{"Molecule": "CN(C)S(=O)(=O)c1cc(-c2ccc3nccc(-c4cccc(S(N)(=O)=O)c4)c3c2)cnc1N [MMV024038]", "Test Target": "ATQ-R4 (cytb M133I and L144S, parent 3D7)", "Observed Property": "EC50", "Reported Value": 1.16}
{"Molecule": "CN(C)CCCN(C)C(=O)C1Cc2cc(-c3ccccc3)ccc2N1S(=O)(=O)c1ccccc1 (stereo not shown) [MMV028895]", "Test Target": "ATQ-R4 (cytb M133I and L144S, parent 3D7)", "Observed Property": "EC50", "Reported Value": 1.07}
{"Molecule": "Cc1ccc(S(=O)(=O)n2cc(-c3ccnc(N)c3)c3cc(Br)cnc32)cc1 [MMV024114]", "Test Target": "ATQ-R4 (cytb M133I and L144S, parent 3D7)", "Observed Property": "EC50", "Reported Value": 1.99}
{"Molecule": "c1cncc(-c2cc(N3CCC(CN4CCOCC4)CC3)nc(-c3ccncc3)n2)c1 [MMV668399]", "Test Target": "ATQ-R4 (cytb M133I and L144S, parent 3D7)", "Observed Property": "EC50", "Reported Value": 0.332}
{"Molecule": "Nc1ccc(-c2nc3cc(Oc4ccc(Oc5ccc6[nH]c(-c7ccc(N)cc7)nc6c5)cc4)ccc3[nH]2)cc1 [MMV011895]", "Test Target": "ATQ-R4 (cytb M133I and L144S, parent 3D7)", "Observed Property": "EC50", "Reported Value": 0.545}
{"Molecule": "COc1ccc(N2CCN(C(CNC(=O)C3CCCCC3)c3ccc4c(c3)OCO4)CC2)cc1 (stereo not shown) [MMV019662]", "Test Target": "ATQ-R4 (cytb M133I and L144S, parent 3D7)", "Observed Property": "EC50", "Reported Value": 0.716}
{"Molecule": "CC(NCc1ccccc1)c1cc(Cl)ccc1O (stereo not shown) [MMV665789]", "Test Target": "ATQ-R4 (cytb M133I and L144S, parent 3D7)", "Observed Property": "EC50", "Reported Value": 0.41}
{"Molecule": "CCN(CC)CCn1c(=N)n(CC(O)c2ccc(Cl)c(Cl)c2)c2ccccc21.Cl (stereo not shown) [MMV000248]", "Test Target": "ATQ-R4 (cytb M133I and L144S, parent 3D7)", "Observed Property": "EC50", "Reported Value": 0.177}
{"Molecule": "CCOc1cc2c(cc1OCC)C(c1cc(Cl)ccc1O)NCC2 (stereo not shown) [MMV000478]", "Test Target": "ATQ-R4 (cytb M133I and L144S, parent 3D7)", "Observed Property": "EC50", "Reported Value": 0.833}
{"Molecule": "O=C(NC(c1ccccc1)c1ccc2cccnc2c1O)c1ccccc1 (stereo not shown) [MMV666080]", "Test Target": "ATQ-R4 (cytb M133I and L144S, parent 3D7)", "Observed Property": "EC50", "Reported Value": 0.746}
{"Molecule": "CCC(C)NCC(O)(c1ccc(Cl)cc1)c1ccc(Cl)cc1 (stereo not shown) [MMV665928]", "Test Target": "ATQ-R4 (cytb M133I and L144S, parent 3D7)", "Observed Property": "EC50", "Reported Value": 0.09}
{"Molecule": "COC(=O)c1ccc(C2C3=C(O)CC(c4ccc(F)cc4)CC3=Nc3ccccc3N2C(=O)c2ccccc2)cc1 (stereo not shown) [MMV011438]", "Test Target": "ATQ-R4 (cytb M133I and L144S, parent 3D7)", "Observed Property": "EC50", "Reported Value": 0.379}
{"Molecule": "CCCOCc1cc(CN2CCN(c3cccc(Cl)c3)CC2)c(O)c2ncccc12 [MMV000787]", "Test Target": "ATQ-R4 (cytb M133I and L144S, parent 3D7)", "Observed Property": "EC50", "Reported Value": 1.44}
{"Molecule": "COc1cc(-c2nc(-c3ccccc3)c(-c3ccccc3)[nH]2)ccc1OCCN(C)C [MMV027496]", "Test Target": "ATQ-R4 (cytb M133I and L144S, parent 3D7)", "Observed Property": "EC50", "Reported Value": 0.305}
{"Molecule": "CN1CCN(c2ccc(Nc3c4ccccc4nc4ccccc34)cc2)CC1 [MMV006172]", "Test Target": "ATQ-R4 (cytb M133I and L144S, parent 3D7)", "Observed Property": "EC50", "Reported Value": 0.217}
{"Molecule": "COc1ccc(-c2nc(NC(=O)Cc3ccc4c(c3)OCCO4)sc2C)cc1 [MMV019719]", "Test Target": "ATQ-R4 (cytb M133I and L144S, parent 3D7)", "Observed Property": "EC50", "Reported Value": 0.203}
{"Molecule": "O=C(NCC(CCCN1CCC(c2c[nH]c3ccccc23)CC1)c1ccccc1)Nc1ccc(Cl)c(Cl)c1 (stereo not shown) [MMV029272]", "Test Target": "ATQ-R4 (cytb M133I and L144S, parent 3D7)", "Observed Property": "EC50", "Reported Value": 9.56}
{"Molecule": "CN(C)CCCNCc1ccc(-c2ccc(Cl)c(Cl)c2)o1 [MMV673964]", "Test Target": "ATQ-R4 (cytb M133I and L144S, parent 3D7)", "Observed Property": "EC50", "Reported Value": 0.163}
{"Molecule": "O=C(Nc1ccccc1O)c1ccc(Oc2cccc(C(=O)Nc3ccccc3O)c2)cc1 [MMV665888]", "Test Target": "ATQ-R4 (cytb M133I and L144S, parent 3D7)", "Observed Property": "EC50", "Reported Value": 1.05}
